PROTOCOL TEXT: Cytotoxicity against rat NRK cells assessed as inhibition of cell viability measured after 24 hrs by WST-1 assay
Assay type: toxicity, cell-based
ATTRIBUTE MEASURED: IC50 at 24 h

[[record]]
cpd_smiles = "CCOCOc1cc(OC)c2c(c1)[n+]([O-])c1ccccc1[n+]2[O-]"
data_value = "> 25 µM"

[[record]]
cpd_smiles = "COCOc1cc(O)c2c(c1)[n+]([O-])c1ccccc1[n+]2[O-]"
data_value = "> 100 µM"

[[record]]
cpd_smiles = "COc1cccc2c1[n+]([O-])c1cccc(O)c1[n+]2[O-]"
data_value = "77 µM"

[[record]]
cpd_smiles = "CCOc1cc(O)c2c(c1)[n+]([O-])c1ccccc1[n+]2[O-]"
data_value = "87 µM"

[[record]]
cpd_smiles = "CCOC(=O)COc1cc(OC)cc2c1[n+]([O-])c1ccccc1[n+]2[O-]"
data_value = "14 µM"


###

Tested on: Mycobacterium tuberculosis
PROTOCOL TEXT: Antimycobacterial activity against drug-sensitive Mycobacterium tuberculosis H37Rv assessed as bacterial growth inhibition measured after 1 week by MABA assay
Format: functional, organism-based
TEST CONDITIONS: 168 h
pIC50: −log10 of the molar value.
ATTRIBUTE MEASURED: pIC50

[[record]]
cpd_smiles = "COc1cccc2c1[n+]([O-])c1cccc(O)c1[n+]2[O-]"
target_entity = "Mycobacterium tuberculosis"
qualifying_sign = "="
data_value = 7.85

[[record]]
cpd_smiles = "CC(=O)Oc1cc(O)c2c(c1)[n+]([O-])c1ccccc1[n+]2[O-]"
target_entity = "Mycobacterium tuberculosis"
qualifying_sign = "="
data_value = 6.07

[[record]]
cpd_smiles = "[O-][n+]1c2ccccc2[n+]([O-])c2c(O)cc(O)cc21"
target_entity = "Mycobacterium tuberculosis"
qualifying_sign = "="
data_value = 6.25

[[record]]
cpd_smiles = "CCOC(=O)COc1cc(OC)c2c(c1)[n+]([O-])c1ccccc1[n+]2[O-]"
target_entity = "Mycobacterium tuberculosis"
qualifying_sign = "="
data_value = 6.60

[[record]]
cpd_smiles = "[O-][n+]1c2cccc(O)c2[n+]([O-])c2cccc(O)c21"
target_entity = "Mycobacterium tuberculosis"
qualifying_sign = "="
data_value = 6.77

[[record]]
cpd_smiles = "CCOCOc1cc(O)c2c(c1)[n+]([O-])c1ccccc1[n+]2[O-]"
target_entity = "Mycobacterium tuberculosis"
qualifying_sign = "="
data_value = 7.70

[[record]]
cpd_smiles = "[O-][n+]1c2ccccc2[n+]([O-])c2cc(O)c(O)cc21"
target_entity = "Mycobacterium tuberculosis"
qualifying_sign = "<"
data_value = 4.30

[[record]]
cpd_smiles = "COc1cc2c(cc1O)[n+]([O-])c1ccccc1[n+]2[O-]"
target_entity = "Mycobacterium tuberculosis"
qualifying_sign = "="
data_value = 4.95

[[record]]
cpd_smiles = "COc1cccc2c1[n+]([O-])c1ccccc1[n+]2[O-]"
target_entity = "Mycobacterium tuberculosis"
qualifying_sign = "="
data_value = 7.40

[[record]]
cpd_smiles = "CCOCOc1cc(OC)c2c(c1)[n+]([O-])c1ccccc1[n+]2[O-]"
target_entity = "Mycobacterium tuberculosis"
qualifying_sign = "="
data_value = 7.22

[[record]]
cpd_smiles = "COc1cc(OC(C)=O)c2c(c1)[n+]([O-])c1ccccc1[n+]2[O-]"
target_entity = "Mycobacterium tuberculosis"
qualifying_sign = "="
data_value = 7.10

[[record]]
cpd_smiles = "CCOc1cc(O)c2c(c1)[n+]([O-])c1ccccc1[n+]2[O-]"
target_entity = "Mycobacterium tuberculosis"
qualifying_sign = "="
data_value = 7.40

[[record]]
cpd_smiles = "[O-][n+]1c2ccccc2[n+]([O-])c2c(O)cccc21"
target_entity = "Mycobacterium tuberculosis"
qualifying_sign = "="
data_value = 6.59

[[record]]
cpd_smiles = "COc1cc(O)c2c(c1)[n+]([O-])c1ccccc1[n+]2[O-]"
target_entity = "Mycobacterium tuberculosis"
qualifying_sign = "="
data_value = 7.30

[[record]]
cpd_smiles = "COCOc1cc(O)c2c(c1)[n+]([O-])c1ccccc1[n+]2[O-]"
target_entity = "Mycobacterium tuberculosis"
qualifying_sign = "="
data_value = 6.96

[[record]]
cpd_smiles = "CCOC(=O)COc1cc(OC)cc2c1[n+]([O-])c1ccccc1[n+]2[O-]"
target_entity = "Mycobacterium tuberculosis"
qualifying_sign = "="
data_value = 5.62

[[record]]
cpd_smiles = "CCOC(=O)COc1cc(O)c2c(c1)[n+]([O-])c1ccccc1[n+]2[O-]"
target_entity = "Mycobacterium tuberculosis"
qualifying_sign = "="
data_value = 6.77

[[record]]
cpd_smiles = "CCOC(=O)COc1cc(OCC(=O)OCC)c2c(c1)[n+]([O-])c1ccccc1[n+]2[O-]"
target_entity = "Mycobacterium tuberculosis"
qualifying_sign = "="
data_value = 5.54

[[record]]
cpd_smiles = "COc1cc(OC)c2c(c1)[n+]([O-])c1ccccc1[n+]2[O-]"
target_entity = "Mycobacterium tuberculosis"
qualifying_sign = "="
data_value = 6.92

[[record]]
cpd_smiles = "COc1cc(O)cc2c1[n+]([O-])c1ccccc1[n+]2[O-]"
target_entity = "Mycobacterium tuberculosis"
qualifying_sign = "="
data_value = 5.72

[[record]]
cpd_smiles = "CC(=O)Oc1cc(OC(C)=O)c2c(c1)[n+]([O-])c1ccccc1[n+]2[O-]"
target_entity = "Mycobacterium tuberculosis"
qualifying_sign = "="
data_value = 5.30

